The reported measurements were obtained from patent US20220144956A1.

MEASUREMENT TARGET: human TGFßRII (antigen of the Octet experiments) (human, UniProt P37173 23-166)
Sequence (P37173 23-166): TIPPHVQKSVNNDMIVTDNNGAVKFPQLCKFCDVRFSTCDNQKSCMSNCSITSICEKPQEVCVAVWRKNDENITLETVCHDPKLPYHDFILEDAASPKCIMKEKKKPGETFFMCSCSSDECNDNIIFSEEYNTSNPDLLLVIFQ
MEASUREMENT LABEL: pKd
The scale used: pKd is minus the common logarithm of the concentration in molar units.

Prompt: Check the records and state pKd for XENP36176 H1.193 L1 (antibody, V domains shown) VH: QLQVQESGPGLVKPSETLSLTCTVSGGSISTSYFSWGWIRQPPGKGLEWIGSFYYGGKTYYNPSLKSRATISIDTSKNQFSLKLSSVTAADTAVYYCARGPTLIRGVIDSWGQGTLVTVSS VL: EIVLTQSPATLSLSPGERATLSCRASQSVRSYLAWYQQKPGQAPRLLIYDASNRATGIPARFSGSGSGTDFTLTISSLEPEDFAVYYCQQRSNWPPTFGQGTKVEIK
Completion: 8.15

Prompt: Look up and state reported pKd for XENP36183 H1.200 L1 (antibody, V domains shown) VH: QLQVQESGPGLVKPSETLSLTCTVSGGSISNAYFSWGWIRQPPGKGLEWIGSFYYGGKTYYNPSLKSRATISIDTSKNQFSLKLSSVTAADTAVYYCARGPTMIRGVIDSWGQGTLVTVSS VL: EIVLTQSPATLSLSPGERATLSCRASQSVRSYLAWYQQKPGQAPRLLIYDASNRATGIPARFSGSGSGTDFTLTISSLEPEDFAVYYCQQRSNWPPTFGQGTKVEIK
Completion: 8.52

Prompt: Output measured pKd for this item: XENP36174 H1.191 L1 (antibody, V domains shown) VH: QLQVQESGPGLVKPSETLSLTCTVSGGSISSSYFSWGWIRQPPGKGLEWIGSFYYGGKTYYNPSLKSRATISIDTSKNQFSLKLSSVTAADTAVYYCARGPTVIRGVIDSWGQGTLVTVSS VL: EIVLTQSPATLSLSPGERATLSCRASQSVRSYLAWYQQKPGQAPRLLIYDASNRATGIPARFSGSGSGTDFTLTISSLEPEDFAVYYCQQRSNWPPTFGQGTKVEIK
Completion: 8.07

Prompt: Identify the reported pKd for the following entry. XENP36170 H1.187 L1 (antibody, V domains shown) VH: QLQVQESGPGLVKPSETLSLTCTVSGGSISESYFSWGWIRQPPGKGLEWIGSFYYGGKTYYNPSLKSRATISIDTSKNQFSLKLSSVTAADTAVYYCARGPTVIRGVIDSWGQGTLVTVSS VL: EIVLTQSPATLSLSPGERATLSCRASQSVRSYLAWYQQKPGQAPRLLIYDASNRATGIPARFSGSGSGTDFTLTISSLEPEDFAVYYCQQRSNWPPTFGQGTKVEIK
Completion: 8.04

Prompt: Identify measured pKd corresponding to XENP36168 H1.185 L1 (antibody, V domains shown) VH: QLQVQESGPGLVKPSETLSLTCTVSGGSISESYFSWGWIRQPPGKGLEWIGSFYYGGKTYYNPSLKSRATISIDTSKNQFSLKLSSVTAADTAVYYCARGPTLIRGVIDSWGQGTLVTVSS VL: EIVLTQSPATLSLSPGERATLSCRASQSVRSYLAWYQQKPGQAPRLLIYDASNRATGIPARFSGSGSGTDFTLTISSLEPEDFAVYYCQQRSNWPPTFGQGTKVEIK
Completion: 8.14
